- ASSAY: Half life in Sprague-Dawley rat at 30 mg/kg, po measured upto 24 hrs by LC-MS/MS analysis
- Type: ADME, organism-based
- CONDITION_LABEL: in vivo
METRIC_NAME: half-life (h)
Numbers only; they are read as h.

Tell me half-life reported for "Cc1ccc(-c2c(C)noc2C)cc1Nc1ccc(C#N)c(Cl)c1" 4.4

---

- ASSAY: Cmax in Sprague-Dawley rat at 30 mg/kg, po measured at 0.5 hrs by LC-MS/MS analysis
- Assay type: ADME, organism-based
- Set-up: dose 30 mg/kg, route oral
- CONDITION_LABEL: in vivo
METRIC_NAME: Cmax
A complete answer gives the number followed by the unit.

Tell me Cmax reported for "Cc1ccc(-c2c(C)noc2C)cc1Nc1ccc(C#N)c(Cl)c1" 2320 ng/mL

---

- Test system: CWR22R
- ASSAY: Antiproliferative activity against human 22Rv1 cells assessed as reduction in cell viability incubated for 6 days by CCK8 assay
- Format: functional, cell-based
- CONDITION_LABEL: 22Rv1, 144 h
pIC50: −log10 of the molar value.
Classify by measured pIC50: label 1 if it is equal to or exceeds 5, label 0 if it is smaller.

ENTRY_SMILES: CCN(c1ccc(C#N)c(Cl)c1)c1cc(-c2ccoc2)ccc1C
GROUP: label 0
//
ENTRY_SMILES: CCN(c1ccc(C#N)c(Cl)c1)c1cc(-c2c[nH]nc2C)ccc1C
GROUP: label 1
//
ENTRY_SMILES: CCN(c1ccc(C#N)c(Cl)c1)c1cc(-c2c(C)noc2C)ccc1C
GROUP: label 1
//
ENTRY_SMILES: CCN(c1cccc(-n2ccnc2)c1)c1ccc(C#N)c(C(F)(F)F)c1
GROUP: label 0
//
ENTRY_SMILES: CCN(c1ccc(C#N)c(Cl)c1)c1cc(-c2ccc(F)nc2)ccc1C
GROUP: label 0
//
ENTRY_SMILES: CCN(c1ccc(C#N)c(Cl)c1)c1cc(-c2cn[nH]c2)ccc1C
GROUP: label 0

Could you verify whether the entry "CCN(c1ccc(C#N)c(Cl)c1)c1cc(-c2cccnc2)ccc1C" shows pIC50 of no less than 5? label 1

Could you verify whether the entry "CCN(c1ccc(C#N)c(Cl)c1)c1cc(-c2ccncc2)ccc1C" shows pIC50 of no less than 5? label 1

Could you verify whether the entry "CCN(c1ccc(C#N)c(Cl)c1)c1cc(-n2cccn2)ccc1C" shows pIC50 of no less than 5? label 0

Could you verify whether the entry "CCN(c1cccc(-c2cncnc2)c1)c1ccc(C#N)c(Cl)c1" shows pIC50 of no less than 5? label 0

---

- ASSAY: AUC (0 to t) in Sprague-Dawley rat at 30 mg/kg, po measured upto 24 hrs by LC-MS/MS analysis
- Format: ADME, organism-based
- Set-up: time < 24 hr, dose 30 mg/kg, route oral
- CONDITION_LABEL: in vivo
METRIC_NAME: AUC(0-t) at 24 h (ng·h/mL)
Numbers only; they are read as ng·h/mL.

Tell me AUC(0-t) at 24 h reported for "Cc1ccc(-c2c(C)noc2C)cc1Nc1ccc(C#N)c(Cl)c1" 4040

---

- Tested on: L02
- ASSAY: Antiproliferative activity against human L02 cells assessed as reduction in cell viability incubated for 6 days by CCK8 assay
- Type: cell-based
- CONDITION_LABEL: L02, 144 h
Attribute: IC50

MOLECULE: CCN(c1ccccn1)c1cc(-c2c(C)noc2C)ccc1C
IC50: 4.42 µM
--
MOLECULE: N#Cc1ccc(N2CCCc3c(-c4ccncc4)cccc32)cc1C(F)(F)F
IC50: 6.38 µM

API: the following record is the query input.
Tell me IC50 reported for "CCN(c1ccc(C#N)c(Cl)c1)c1cc(-c2ccccc2)ccc1C" > 30 µM

---

- SUBJECT_OF_TEST: Androgen receptor (Homo sapiens, UniProt P10275)
- Sequence (P10275 whole entry): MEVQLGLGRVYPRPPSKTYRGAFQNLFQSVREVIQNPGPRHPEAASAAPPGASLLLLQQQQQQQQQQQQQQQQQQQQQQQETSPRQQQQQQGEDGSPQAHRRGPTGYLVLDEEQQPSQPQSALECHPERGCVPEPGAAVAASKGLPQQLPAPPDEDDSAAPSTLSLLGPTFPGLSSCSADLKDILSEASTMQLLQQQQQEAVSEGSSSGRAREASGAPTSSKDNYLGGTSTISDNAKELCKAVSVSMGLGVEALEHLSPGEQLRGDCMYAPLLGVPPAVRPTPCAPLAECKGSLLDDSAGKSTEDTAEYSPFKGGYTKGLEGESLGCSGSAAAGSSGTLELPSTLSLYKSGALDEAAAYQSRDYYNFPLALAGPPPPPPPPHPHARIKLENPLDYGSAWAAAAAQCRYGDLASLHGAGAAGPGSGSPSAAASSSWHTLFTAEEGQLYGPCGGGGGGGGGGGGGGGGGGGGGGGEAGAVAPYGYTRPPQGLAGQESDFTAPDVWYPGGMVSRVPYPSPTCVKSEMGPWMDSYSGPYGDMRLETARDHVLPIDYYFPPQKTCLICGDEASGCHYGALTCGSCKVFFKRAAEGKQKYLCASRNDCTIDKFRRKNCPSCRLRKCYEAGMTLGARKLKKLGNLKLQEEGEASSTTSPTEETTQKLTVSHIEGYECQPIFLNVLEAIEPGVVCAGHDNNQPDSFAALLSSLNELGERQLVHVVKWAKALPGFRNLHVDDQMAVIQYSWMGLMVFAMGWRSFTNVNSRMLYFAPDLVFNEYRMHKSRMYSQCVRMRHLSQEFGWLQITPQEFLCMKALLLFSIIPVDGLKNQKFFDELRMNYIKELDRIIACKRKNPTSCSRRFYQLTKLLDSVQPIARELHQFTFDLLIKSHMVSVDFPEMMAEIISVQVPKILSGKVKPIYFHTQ
METRIC_NAME: pIC50
Formally, pIC50 is defined as -log10 of the concentration c, with c in mol/L.

Determine reported pIC50 for "Cc1ccc(-c2c(C)noc2C)cc1Nc1ccc(C#N)c(Cl)c1" ; test system: Androgen receptor (Homo sapiens, UniProt P10275). 6.19

---

Attribute: IC50
- Tested on: CWR22R
- ASSAY: Antiproliferative activity against human 22Rv1 cells assessed as reduction in cell viability incubated for 6 days by CCK8 assay
- Format: functional, cell-based
- CONDITION_LABEL: 22Rv1, 144 h

Illustrative cases are given below, each with its answer.
COMPOUND: CCN(c1ccc(C#N)c(Cl)c1)c1cc(-n2ccnc2)ccc1C
RECORDED_MEASUREMENT: > 30 µM

COMPOUND: CCN(c1ccc(C#N)c(Cl)c1)c1cc(-c2ccnn2C)ccc1C
RECORDED_MEASUREMENT: 4.33 µM

COMPOUND: CCN(c1ccccn1)c1cc(-c2c(C)noc2C)ccc1C
RECORDED_MEASUREMENT: 5.43 µM

Tell me IC50 reported for "N#Cc1ccc(N2CCCc3c(-c4ccncc4)cccc32)cc1C(F)(F)F" 15 µM

Tell me IC50 reported for "Cn1nccc1-c1cccc2c1CCCN2c1ccc(C#N)c(C(F)(F)F)c1" 10.4 µM

Tell me IC50 reported for CNC(=O)c1ccc(N2C(=S)N(c3ccc(C#N)c(C(F)(F)F)c3)C(=O)C2(C)C)cc1F [ENZALUTAMIDE] > 30 µM

Tell me IC50 reported for "N#Cc1ccc(N2CCc3cc(-c4cccnc4)ccc3C2)cc1C(F)(F)F" 4.79 µM

Tell me IC50 reported for "Cc1ccc(-c2c(C)noc2C)cc1Nc1ccc(C#N)c(Cl)c1" 3.5 µM

Tell me IC50 reported for "CCN(c1ccc(C#N)c(Cl)c1)c1cc(-c2ccco2)ccc1C" > 30 µM

Tell me IC50 reported for "CCN(c1ccc(C#N)c(Cl)c1)c1cc(-n2cnc3ccccc32)ccc1C" 3.04 µM

---

- Tested on: CWR22R
- ASSAY: Antiproliferative activity against human 22Rv1 cells assessed as reduction in cell viability incubated for 6 days by CCK8 assay
- Assay type: functional, cell-based
- CONDITION_LABEL: 22Rv1, 144 h
Attribute: IC50
Numbers only; they are read as µM.

ENTRY_SMILES: CCN(c1ccc(C#N)c(C(F)(F)F)c1)c1cc(-n2ccnc2)ccc1C
SUBJECT_OF_TEST: CWR22R
RECORDED_MEASUREMENT: 16.3
//
ENTRY_SMILES: N#Cc1ccc(N2CCc3cc(-c4ccncc4)ccc3C2)cc1C(F)(F)F
SUBJECT_OF_TEST: CWR22R
RECORDED_MEASUREMENT: 6.94
//
ENTRY_SMILES: CCN(c1ccc(C#N)c(Cl)c1)c1cc(-c2cccs2)ccc1C
SUBJECT_OF_TEST: CWR22R
RECORDED_MEASUREMENT: 22

Tell me IC50 reported for "N#Cc1ccc(N2CCc3cc(-c4cnc5ccccc5c4)ccc3C2)cc1C(F)(F)F" 25.9
